From: patent US20200399318A1

- TARGET_OR_SYSTEM: T1, C. elegans cofactor-independent phosphoglycerate mutase (iPGM) (Caenorhabditis elegans), G5EFZ1
- T1 chain: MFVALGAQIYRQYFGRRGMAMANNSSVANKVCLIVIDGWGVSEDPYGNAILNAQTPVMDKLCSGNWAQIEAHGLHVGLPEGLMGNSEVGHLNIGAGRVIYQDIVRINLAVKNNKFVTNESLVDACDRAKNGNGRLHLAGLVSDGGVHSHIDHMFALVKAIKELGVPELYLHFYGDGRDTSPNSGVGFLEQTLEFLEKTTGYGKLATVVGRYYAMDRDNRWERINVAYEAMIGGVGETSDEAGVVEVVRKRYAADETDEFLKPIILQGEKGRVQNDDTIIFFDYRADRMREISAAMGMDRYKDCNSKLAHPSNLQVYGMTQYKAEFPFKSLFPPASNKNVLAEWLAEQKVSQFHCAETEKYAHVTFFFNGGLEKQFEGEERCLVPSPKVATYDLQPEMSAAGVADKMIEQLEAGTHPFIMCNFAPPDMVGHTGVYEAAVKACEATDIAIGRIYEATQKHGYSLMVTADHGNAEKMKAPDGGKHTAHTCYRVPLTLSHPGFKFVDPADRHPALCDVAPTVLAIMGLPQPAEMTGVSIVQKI
- ASSAY: quadratic (stoichiometric binding) model fitted to concentration response curves of the coupled bioluminescent enzyme assay at several C. elegans iPGM concentrations (FIG. 10B)
pKd: −log10 of the molar value.

{"BINDER": "YDYPGDYCYLYGTCG (modifications not checked) [Ce-2 (ipglycermide B)]", "pKd": 10.14}
